# System: PC12 cells that express mutant G93A SOD1
# MEASUREMENT DESCRIPTION: Mutant SOD1-induced cytotoxicity protection assay
# APPLIED CONDITIONS: rat, 48 h
# Description: This idea was tested by examining the sensitivity of PC12 cells to SOD1 aggregates in the presence and absence of proteasome inhibitor MG132. PC12 cells expressing no SOD1, wild type SOD1, G85R SOD1 or G93A SOD1 were grown with or without MG132 (FIG. 1). PC12 cells expressing G93A SOD1 were treated with 100 nM MG132 with or without co-treatment with geldanamycin or radicicol.
READOUT KIND: Corresponding % viability
Provide a numeric answer, followed by its unit.

Use these answered entries as a reference point.
In [3]: df
Out[3]:
                                   compound               readout_kind  recorded_value
0             O=c1cc(CSc2ccccc2Cl)[nH][nH]1  Corresponding % viability            123%
1           O=c1cc(CSc2cccc(Cl)c2)[nH][nH]1  Corresponding % viability            148%
2  Cc1cc([S+]([O-])Cc2cc(=O)[nH][nH]2)c(C)cc1Cl (stereo not shown)  Corresponding % viability            123%

Consider now this further compound.
Quick one: Corresponding % viability of CCc1cccc(OCc2cc(=O)[nH][nH]2)c1 ?
125%
